Provenance of the data: patent US7220784B2

test system: K562 cells; assay: In situ ultra violet irradiation of dosed K562 cells, IC50; assay type: cell-based, human; conditions: Homo sapiens, K562, 2 min, in situ UV 2 mins (Table 6); read-out: IC50 K562
endpoint-label: IC50 (nM)
One number for each entry, in nM.

Quote IC50 reported for COc1ccc(/C=C/c2cc(OC)c(OC)c(OC)c2)cc1O [trans-CA-4, trans-combretastatin A-4] please.
2.9

* * *

system: HUVEC; experiment: Growth inhibition studies using HUVEC; format: cell-based, human; settings: Homo sapiens, HUVEC
endpoint-label: pIC50
Give bare numbers, as −log10 of the molar value.

Sample answers from the record:
>  <item-smiles>
COc1ccc(/C=C\c2cc(OC)c(OC)c(OC)c2)cc1

>  <pIC50>
8.22

$$$$
>  <item-smiles>
COc1ccc(/C=C\c2cc(OC)c(OC)c(OC)c2)cc1F

>  <pIC50>
8.40

$$$$
>  <item-smiles>
COc1ccc(C=Cc2cc(OC)c(OC)c(OC)c2)cc1OC(=O)c1ccncc1

>  <pIC50>
7.40

$$$$

# map each molecule to its pIC50
1. COc1ccc(C=C(C)c2cc(OC)c(OC)c(OC)c2)cc1O
2. COc1cc(C=Cc2ccc(N(C)C)cc2)cc(OC)c1OC
3. CCC(=Cc1ccc(OC)c(O)c1)c1cc(OC)c(OC)c(OC)c1
4. COc1ccc(C=C(C)c2cc(OC)c(OC)c(OC)c2)cc1
5. COc1ccc(/C=C\c2cc(C)c(C)c(C)c2)cc1F

1. 7.05
2. 6.46
3. 6.66
4. 6.46
5. 6.34

* * *

test system: K562 cells; assay: In situ ultra violet irradiation of dosed K562 cells, IC50; type: cell-based, human; conditions: Homo sapiens, K562, 12.5 min, in situ UV 12.5 mins (Table 6); read-out: IC50 K562
endpoint-label: IC50 (nM)
Answers are plain numbers, in nM.

Quote IC50 reported for COc1ccc(/C=C/c2cc(OC)c(OC)c(OC)c2)cc1O [trans-CA-4, trans-combretastatin A-4] please.
2.4

* * *

system: K562; assay: K562 cell cycle analysis; format: cell-based, human; conditions: K562; of cells with DNA content = 2 n or >2 n
Threshold rule: % of cells in G2-M greater than or equal to 80% is Condition met; below that, Condition not met.

Below are worked cases with known answers.
>  <item-smiles>
COc1ccc(C=C(C)c2cc(OC)c(OC)c(OC)c2)cc1

>  <measured-on>
K562

>  <label-value>
Condition not met

$$$$
>  <item-smiles>
COc1ccc(/C=C\c2cc(C)c(C)c(C)c2)cc1O

>  <measured-on>
K562

>  <label-value>
Condition met

$$$$
>  <item-smiles>
COc1ccc(/C=C\c2cc(C)c(C)c(C)c2)cc1

>  <measured-on>
K562

>  <label-value>
Condition met

$$$$
>  <item-smiles>
CCOc1cc(C=Cc2ccc(OC)c(F)c2)cc(OCC)c1OCC

>  <measured-on>
K562

>  <label-value>
Condition not met

$$$$
>  <item-smiles>
COc1ccc(C=Cc2ccc(C)c(C)c2)cc1O

>  <measured-on>
K562

>  <label-value>
Condition not met

$$$$
>  <item-smiles>
COc1ccc(/C=C\c2cc(C)c(C)c(C)c2)cc1F

>  <measured-on>
K562

>  <label-value>
Condition not met

$$$$

We now examine a further molecule.
Test whether the molecule CCOc1cc(C=Cc2ccc(OC)c(O)c2)cc(OCC)c1OCC records % of cells in G2-M of 80% or higher.
Condition met

* * *

test: Pharmacokinetic profile in mice; format: in vivo; conditions: mouse, in vivo, po, 200 mg/kg
endpoint-label: Cmax (ng/mL)
Give bare numbers, in ng/mL.

Quote Cmax reported for COc1ccc(C=Cc2cc(OC)c(OC)c(OC)c2)cc1F [Compound 97-64H] please.
1490

* * *

Could you please report measured % of cells with DNA content <2 n for the items listed next?
system: K562; test: K562 cell cycle analysis; assay type: cell-based, human; conditions: K562
One number for each entry, in %.

>  <molecule>
COc1ccc(C=C(C)c2cc(OC)c(OC)c(OC)c2)cc1 [Compound 213]

>  <endpoint-label>
% of cells with DNA content <2 n

>  <test-result>
23

$$$$
>  <molecule>
CCOc1cc(C=Cc2ccc(OC)c(F)c2)cc(OCC)c1OCC [Compound 251]

>  <endpoint-label>
% of cells with DNA content <2 n

>  <test-result>
24

$$$$

# map each molecule to its % of cells with DNA content <2 n
1. CCOc1cc(C=Cc2ccc(OC)c(O)c2)cc(OCC)c1OCC [Compound 253]
2. COc1ccc(/C=C\c2cc(OC)c(OC)c(OC)c2)cc1F [Compound 90]
3. COc1ccc(C=C(C)c2cc(OC)c(OC)c(OC)c2)cc1O [Compound 210]
4. COc1ccc(C=Cc2ccc(C)c(C)c2)cc1F [Compound 147]
5. COc1ccc(/C=C\c2cc(O)c(OC)c(OC)c2)cc1F [Compound 242]
6. COc1ccc(/C=C\c2cc(C)c(C)c(C)c2)cc1O [Compound 133]
7. COc1ccc(/C=C\c2cc(C)c(C)c(C)c2)cc1F [Compound 120]

[4, 16, 23, 28, 29, 6, 23]

# map each molecule to its % of cells with DNA content <2 n
1. COc1ccc(/C=C\c2cc(C)c(C)c(C)c2)cc1 [Compound 117]
2. CCC(=Cc1ccc(OC)c(O)c1)c1cc(OC)c(OC)c(OC)c1 [Compound 219]

1: 15; 2: 24

Quote % of cells with DNA content <2 n reported for COc1ccc(C=Cc2ccc(C)c(C)c2)cc1O [Compound 146] please.
31

* * *

system: K562 cells; experiment: In situ ultra violet irradiation of dosed K562 cells, IC50; type: cell-based, human; settings: Homo sapiens, K562, 0.25 h, in situ UV 15.0 mins (Table 6); read-out: IC50 K562
endpoint-label: pIC50
Answers are plain numbers, as −log10 of the molar value.

Provide measured pIC50 on K562 cells for COc1ccc(/C=C/c2cc(OC)c(OC)c(OC)c2)cc1O [trans-CA-4, trans-combretastatin A-4] please.
8.70

* * *

tested on: K562 cells; assay: In situ ultra violet irradiation of dosed K562 cells, IC50; type: cell-based, human; settings: Homo sapiens, K562, in situ UV, repeated experiment, 35 secs (Table 7); read-out: IC50 K562
endpoint-label: IC50 (nM)
Give bare numbers, in nM.

Quote IC50 reported for COc1ccc(/C=C/c2cc(OC)c(OC)c(OC)c2)cc1O [trans-CA-4, trans-combretastatin A-4] please.
11

* * *

Tested on: K562 cells
Assay: In situ ultra violet irradiation of dosed K562 cells, IC50
Assay type: cell-based, human
Conditions: Homo sapiens, K562, in situ UV, repeated experiment, 45 secs (Table 7); read-out: IC50 K562
Experimental: Previously, the isomerisation study had been performed ex situ, i.e. in a photochemical reactor. However, it was necessary to illustrate the potential of the process as a real therapy by repeating the isomerization in the presence of the caner cells i.e. in situ. […] Following irradiation, the cells were incubated in the normal way and the IC50 values were determined. […]
endpoint-label: IC50
I'd appreciate it if you wrote the number followed by its unit.

Quote IC50 reported for COc1ccc(/C=C/c2cc(OC)c(OC)c(OC)c2)cc1O [trans-CA-4, trans-combretastatin A-4] please.
9 nM

* * *

system: L1210 murine leukaemia cell line; assay: MTT, L1210; assay type: cell-based; settings: Mus musculus; L1210 murine leukaemia cell line (footnote a)
endpoint-label: IC50 (µM)
Answers are plain numbers, in µM.

Quote IC50 reported for COc1ccc(/C=C\c2cc(O)c(OC)c(OC)c2)cc1O [Compound 18, reference compound] please.
0.04

* * *

test system: K562 cells; assay: In situ ultra violet irradiation of dosed K562 cells, IC50; type: cell-based, human; details: Homo sapiens, K562, 0.05 h, in situ UV 3 mins (Table 6); read-out: IC50 K562
endpoint-label: IC50 (nM)
Numbers only, in nM.

Quote IC50 reported for COc1ccc(/C=C/c2cc(OC)c(OC)c(OC)c2)cc1O [trans-CA-4, trans-combretastatin A-4] please.
1.7

* * *

Test system: H460 human lung cell line
Test: Cytotoxicity/growth inhibition assay (MTT), H460
Assay type: cell-based
Conditions: Homo sapiens, NCI-H460
Experimental: The following assays (1–5) were carried out as described in our paper (Woods, et al, British Journal of Cancer, 71, 705–711 (1995)). […] Tubulin assembly is monitored by light scatter/absorption at 350 nm. (2) Competition for the colchicine binding site on tubulin. […] Animals (n=5) were trated either with 5 daily injections and tumour size measured with time following treatment. • (7) The pharmacokinetic profile of agents was determined in mice following injection with drug. […]
Could you please report measured pIC50 for the items listed next?
One number for each entry, as −log10 of the molar value.

>  <item-smiles>
COC1=CC(=O)C(/C=C\c2cc(OC)c(OC)c(OC)c2)=CC1=O

>  <pIC50>
7.42

$$$$
>  <item-smiles>
COC1=CC(=O)C(CCc2cc(OC)c(OC)c(OC)c2)=CC1=O

>  <pIC50>
5.51

$$$$

Quote pIC50 reported for COc1ccc(C=Cc2cc(OC)c(OC)c(OC)c2)cc1OC(=O)c1ccncc1 please.
5.56
